system: Aeromonas salmonicida ATCC33658; assay: microbe, parasite or virus in culture; type: cell-based; settings: ATCC33658
Where no end group is shown, it is not given here.
resultType: MIC A. salmonicida ATCC33658 (µg/mL)
Express it in µg/mL; write the number only.

>>> measuredvalue("GLRKRLRKFRNKIKEKLKKIGQKSQGLLPKLAPRTDY [Peptide 29]")
8
>>> measuredvalue("GLRKRLRKFRNKIKEKLKKNGQKIQGLLPKLAPRTDY [Peptide 22]")
16
>>> measuredvalue("GLRKRLRKFRNKMKEKLKKIGQKIQGLLPKLAPRTDY [Peptide 6]")
4
>>> measuredvalue("GLRKRLRKFRNKSKEKLKKIGQKIQGLLPKLAPRTDY [Peptide 8]")
4

Consider GLRKRLRKFRNKIKEKLKKIGQKGQGLLPKLAPRTDY [Peptide 27] . Its measured MIC A. salmonicida ATCC33658 is 8

Sample GLRKRLRKFRNKIKEKLKKHGQKIQGLLPKLAPRTDY [Peptide 21] ; MIC A. salmonicida ATCC33658 observed: 4

* * *

Listing of entries alongside the reported MIC S. Typhimurium LT2.
system: Salmonella enterica serovar Typhimurium LT2; experiment: microbe, parasite or virus in culture; type: cell-based; conditions: LT2
Where no end group is shown, it is not given here.
Please respond with the number in µg/mL and leave the unit unwritten.

Some sequences with known MIC S. Typhimurium LT2 results, for comparison:
>>> measuredvalue("GLRKRPRKFRNKIKEKLKKIGQKIQGLLPKLAPRTDY [Peptide 1]")
8
>>> measuredvalue("GLRKRLRKFRNKIKEKLKKHGQKIQGLLPKLAPRTDY [Peptide 21]")
8
>>> measuredvalue("GLRKRLRKFRNKFKEKLKKIGQKIQGLLPKLAPRTDY [Peptide 4]")
4
>>> measuredvalue("GLRKRLRKFRNKIKEDLKKIGQKIQGLLPKLAPRTDY [Peptide 10]")
4
>>> measuredvalue("GLRKRLRKFRNKIKEFLKKIGQKIQGLLPKLAPRTDY [Peptide 11]")
16

Form field, MIC S. Typhimurium LT2 with Salmonella enterica serovar Typhimurium LT2, item GLRKRLRKFRNKIKELLKKIGQKIQGLLPKLAPRTDY [Peptide 13] : 16

Sample GLRKRLRKFRNKIKEKLKKICQKIQGLLPKLAPRTDY [Peptide 23] , system: Salmonella enterica serovar Typhimurium LT2. Its MIC S. Typhimurium LT2 is 16

Item GLRKRLRKFRNKIKEKLKKIGQKSQGLLPKLAPRTDY [Peptide 29] was tested on Salmonella enterica serovar Typhimurium LT2; the reported MIC S. Typhimurium LT2 is 8

Field MIC S. Typhimurium LT2 (Salmonella enterica serovar Typhimurium LT2), entry GLRKRLRKFRNKMKEKLKKIGQKIQGLLPKLAPRTDY [Peptide 6] : 8

* * *

tested on: Aeromonas salmonicida ATCC33658; assay: microbe, parasite or virus in culture; assay type: cell-based; conditions: ATCC33658
Where no end group is shown, it is not given here.
# Lookup of reported MIC A. salmonicida ATCC33658 keyed by entry

Guide cases for MIC A. salmonicida ATCC33658, answers given:
>>> measuredvalue("GLRKRLRKFRNKIKEKLKKIGQKDQGLLPKLAPRTDY [Peptide 26]")
"≥64 µg/mL"
>>> measuredvalue("GLRKRLRKFRNKIKEILKKIGQKIQGLLPKLAPRTDY [Peptide 12]")
"8 to 16 µg/mL"

Record summary for GLRKRLRKFRNKIKEKLKKICQKIQGLLPKLAPRTDY [Peptide 23] : reported MIC A. salmonicida ATCC33658 = 16 to 32 µg/mL

The recorded MIC A. salmonicida ATCC33658 for entry GLRKRLRKFRNKIKEFLKKIGQKIQGLLPKLAPRTDY [Peptide 11] equals 16 to 32 µg/mL

Entry under test: GLRKRLRKFRNKIKEKDKKIGQKIQGLLPKLAPRTDY [Peptide 16] . Its MIC A. salmonicida ATCC33658 was ≥64 µg/mL

Per the records, this sequence ( GLRKRLRKFRNKIKEKLPKIGQKIQGLLPKLAPRTDY [Peptide 19] ) has MIC A. salmonicida ATCC33658 equal to 2 to 4 µg/mL

Quick note, MIC A. salmonicida ATCC33658 for GLRKRLRKFRNKIKEKLKKIGQKCQGLLPKLAPRTDY [Peptide 25] landed at 4 to 8 µg/mL

Consider GLRKRLRKFRNKHKEKLKKIGQKIQGLLPKLAPRTDY [Peptide 5] . Its measured MIC A. salmonicida ATCC33658 is 2 to 4 µg/mL

Form field MIC A. salmonicida ATCC33658, entry GLRKRLRKFRNKDKEKLKKIGQKIQGLLPKLAPRTDY [Peptide 3] : ≥64 µg/mL

The sequence listed as GLRKRPRKFRNKIKEKLKKIGQKIQGLLPKLAPRTDY [Peptide 1] has a reported MIC A. salmonicida ATCC33658 of 8 to 16 µg/mL

* * *

system: Salmonella enterica serovar Typhimurium LT2; test: microbe, parasite or virus in culture; type: cell-based; conditions: LT2
Where no end group is shown, it is not given here.
Here the recorded MIC S. Typhimurium LT2 is given for each entry.

>>> measuredvalue("GLRKRLRKFRNKIKEKLKKIGQKGQGLLPKLAPRTDY [Peptide 27]")
"8 to 16 µg/mL"
>>> measuredvalue("GLRKRLRKFRNKIKEKLKKIGQKIQTLLPKLAPRTDY [Peptide 30]")
"4 to 8 µg/mL"
>>> measuredvalue("GLRKRLRKFRNKDKEKLKKIGQKIQGLLPKLAPRTDY [Peptide 3]")
"≥64 µg/mL"
>>> measuredvalue("GLRKRLRKFRNKIKEKPKKIGQKIQGLLPKLAPRTDY [Peptide 18]")
"≥64 µg/mL"

Noted for GLRKRLRKFRNKIKEKLKKIGQKIQGLLPKLAPRTDY [Cap18] : its MIC S. Typhimurium LT2 reads 4 to 8 µg/mL

* * *

system: Aeromonas salmonicida ATCC33658; experiment: microbe, parasite or virus in culture; format: cell-based; details: ATCC33658
Where no end group is shown, it is not given here.
MIC A. salmonicida ATCC33658 for assorted sequences

>>> measuredvalue("GLRKRLRKFRNKIKEMLKKIGQKIQGLLPKLAPRTDY [Peptide 14]")
"8 to 16 µg/mL"
>>> measuredvalue("GLRKRLRKFRNKIKEDLKKIGQKIQGLLPKLAPRTDY [Peptide 10]")
"2 to 4 µg/mL"
>>> measuredvalue("GLRKRLRKFRNKIKEKPKKIGQKIQGLLPKLAPRTDY [Peptide 18]")
"≥64 µg/mL"

Field MIC A. salmonicida ATCC33658 (entry GLRKRLRKFRNKIKEKKKKIGQKIQGLLPKLAPRTDY [Peptide 17] ) reads 16 to 32 µg/mL

* * *

tested on: Salmonella enterica serovar Typhimurium LT2; assay: microbe, parasite or virus in culture; format: cell-based; conditions: LT2
Where no end group is shown, it is not given here.
Listed here are sequences together with their documented MIC S. Typhimurium LT2.
Response body: numeric value in µg/mL, unit text excluded.

Some sequences with recorded MIC S. Typhimurium LT2:
>>> measuredvalue("GLRKRLRKFRNKIKEYLKKIGQKIQGLLPKLAPRTDY [Peptide 15]")
16
>>> measuredvalue("GLRKRLRKFRNKIKEKLPKIGQKIQGLLPKLAPRTDY [Peptide 19]")
4

Bench note, Salmonella enterica serovar Typhimurium LT2: entry GLRKRLRKFRNKHKEKLKKIGQKIQGLLPKLAPRTDY [Peptide 5] , its MIC S. Typhimurium LT2 = 4

* * *

test system: Salmonella enterica serovar Typhimurium LT2; test: microbe, parasite or virus in culture; assay type: cell-based; conditions: LT2
Where no end group is shown, it is not given here.
Let's look at some sequences and their measured MIC S. Typhimurium LT2.

In the examples that follow, each entry is paired with its recorded MIC S. Typhimurium LT2.
>>> measuredvalue("GLRKRLRKFRNKQKEKLKKIGQKIQGLLPKLAPRTDY [Peptide 7]")
"4 to 8 µg/mL"
>>> measuredvalue("GLRKRLRKFRNKIKEKLKKIGQKCQGLLPKLAPRTDY [Peptide 25]")
"8 to 16 µg/mL"
>>> measuredvalue("GLRKRLRKFRNKIKEKLKKIGQKDQGLLPKLAPRTDY [Peptide 26]")
"≥64 µg/mL"

Consider now this further sequence.
So for GLRKRLRKFRNKIKECLKKIGQKIQGLLPKLAPRTDY [Peptide 9] , the logged MIC S. Typhimurium LT2 turned out to be 8 to 16 µg/mL

Where do the numbers come from? From paper PMC5978884.
